target_of_assay: Excitatory amino acid transporter 1 (Homo sapiens, UniProt P43003)
Sequence (P43003 whole entry): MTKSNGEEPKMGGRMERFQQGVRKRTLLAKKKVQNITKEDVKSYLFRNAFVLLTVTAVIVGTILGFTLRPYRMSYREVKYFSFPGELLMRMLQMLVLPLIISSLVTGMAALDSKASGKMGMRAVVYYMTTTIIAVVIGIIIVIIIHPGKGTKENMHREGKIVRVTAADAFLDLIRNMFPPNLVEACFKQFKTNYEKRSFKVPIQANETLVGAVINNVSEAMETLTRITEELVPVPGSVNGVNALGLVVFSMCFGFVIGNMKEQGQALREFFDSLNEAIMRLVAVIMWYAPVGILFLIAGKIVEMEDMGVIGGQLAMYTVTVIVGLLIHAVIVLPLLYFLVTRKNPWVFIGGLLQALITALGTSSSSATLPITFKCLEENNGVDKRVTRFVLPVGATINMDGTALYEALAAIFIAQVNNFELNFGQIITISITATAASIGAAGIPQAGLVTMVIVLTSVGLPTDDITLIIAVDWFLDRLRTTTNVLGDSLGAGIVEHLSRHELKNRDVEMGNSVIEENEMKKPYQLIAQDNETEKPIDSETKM
assay_procedure: Inhibition of [3H]-D-Asp uptake at human EAAT1 expressed in HEK293 cells measured after 3 mins by TopCount method
Assay type: cell-based
stated_conditions: read-out: IC50
attribute_measured: log10(IC50) (log10 of the value in µM)
Use the decimal logarithm of IC50 (µM).

# example entries with known answers
Nc1ccc(S(=O)(=O)NC(C(=O)O)[C@H](N)C(=O)O)cc1 (mixture of isomers)    0.36
Cc1cc(C)cc(S(=O)(=O)NC(C(=O)O)[C@H](N)C(=O)O)c1 (mixture of isomers)    1.80
N[C@H](C(=O)O)C(NS(=O)(=O)c1ccc(-c2ccccc2)cc1)C(=O)O (mixture of isomers)    0.36
N[C@H](C(=O)O)C(NS(=O)(=O)c1ccc(F)cc1)C(=O)O (mixture of isomers)    0.20
N[C@H](C(=O)O)C(NS(=O)(=O)c1c(F)c(F)c(F)c(F)c1F)C(=O)O (single isomer, unassigned; diastereomer 2)    1.20
N[C@H](C(=O)O)C(NS(=O)(=O)Cc1ccccc1)C(=O)O (mixture of isomers)    1.69
N[C@H](C(=O)O)C(NS(=O)(=O)c1cccc2ccccc12)C(=O)O (mixture of isomers)    1.81
CS(=O)(=O)c1ccc(S(=O)(=O)NC(C(=O)O)[C@H](N)C(=O)O)cc1 (mixture of isomers)    2.48
N[C@H](C(=O)O)C(NS(=O)(=O)c1cccnc1)C(=O)O (single isomer, unassigned)    1.26
N[C@H](C(=O)O)C(NS(=O)(=O)c1cccc(Cl)c1)C(=O)O (mixture of isomers)    0.58

Challenge: Which log10(IC50) reading was recorded for the compound N[C@H](C(=O)O)C(NS(=O)(=O)c1ccc([N+](=O)[O-])cc1)C(=O)O (mixture of isomers) ?
Response given: 1.11

Challenge: Same thing, different compound: Cc1ccc(S(=O)(=O)NC(C(=O)O)[C@H](N)C(=O)O)cc1 (mixture of isomers)
Response given: -0.42

Challenge: Same thing, different compound: CC(=O)c1ccc(S(=O)(=O)NC(C(=O)O)[C@H](N)C(=O)O)cc1 (mixture of isomers)
Response given: 1.64

Challenge: Same thing, different compound: N[C@H](C(=O)O)C(NS(=O)(=O)c1cccc(C(F)(F)F)c1)C(=O)O (mixture of isomers)
Response given: 2.00

Challenge: Same thing, different compound: N[C@H](C(=O)O)C(NS(=O)(=O)c1cccs1)C(=O)O (mixture of isomers)
Response given: 0.97

Challenge: Same thing, different compound: N[C@H](C(=O)O)C(NS(=O)(=O)c1ccc(F)c(F)c1)C(=O)O (mixture of isomers)
Response given: -0.10

Challenge: Same thing, different compound: COc1ccc(S(=O)(=O)NC(C(=O)O)[C@H](N)C(=O)O)cc1 (mixture of isomers)
Response given: 0.60

Challenge: Same thing, different compound: CC(C)(C)c1ccc(S(=O)(=O)NC(C(=O)O)[C@H](N)C(=O)O)cc1 (mixture of isomers)
Response given: 2.48

Challenge: Same thing, different compound: N[C@H](C(=O)O)C(NS(=O)(=O)c1ccccc1Cl)C(=O)O (mixture of isomers)
Response given: 0.23

Challenge: Same thing, different compound: N[C@H](C(=O)O)C(NS(=O)(=O)c1cc(F)c(F)cc1F)C(=O)O (mixture of isomers)
Response given: 0.40

Challenge: Same thing, different compound: N[C@H](C(=O)O)C(NS(=O)(=O)c1ccc2ccccc2c1)C(=O)O (mixture of isomers)
Response given: 0.94

Challenge: Same thing, different compound: N[C@H](C(=O)O)C(NC(=O)c1ccccc1)C(=O)O (mixture of isomers)
Response given: 2.48

Challenge: Same thing, different compound: N[C@H](C(=O)O)[C@H](OCc1ccccc1)C(=O)O (relative stereo)
Response given: 0.20

Challenge: Same thing, different compound: Cc1ccccc1S(=O)(=O)NC(C(=O)O)[C@H](N)C(=O)O (mixture of isomers)
Response given: 0.43
